target-entity: h5-HT2B (Homo sapiens, UniProt P41595)
Sequence (P41595 whole entry): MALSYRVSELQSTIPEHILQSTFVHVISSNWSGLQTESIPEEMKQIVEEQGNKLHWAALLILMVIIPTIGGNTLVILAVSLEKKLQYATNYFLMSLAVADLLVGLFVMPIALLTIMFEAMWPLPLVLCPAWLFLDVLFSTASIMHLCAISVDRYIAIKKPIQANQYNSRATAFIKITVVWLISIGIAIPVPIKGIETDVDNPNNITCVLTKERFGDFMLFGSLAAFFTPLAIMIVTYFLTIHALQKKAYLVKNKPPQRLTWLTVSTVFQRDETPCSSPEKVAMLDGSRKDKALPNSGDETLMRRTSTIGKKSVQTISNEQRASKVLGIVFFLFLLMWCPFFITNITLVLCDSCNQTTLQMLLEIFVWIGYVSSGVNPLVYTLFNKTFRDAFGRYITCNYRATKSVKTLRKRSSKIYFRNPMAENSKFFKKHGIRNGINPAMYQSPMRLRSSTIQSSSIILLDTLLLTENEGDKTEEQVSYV
assay-comment: Functional activity, FLIPR calcium assay, h5-HT2B
conditions-used: FLIPR
endpoint-label: EC50 (nM)
Supply the numeric figure in nM, leaving out any unit text.

Lookup: Tell us which EC50 value is on record for C[C@@H]1CNC[C@H]2Cc3ccc(Cl)cc3N21
Found: 3.4

====

target-entity: human 5-HT2C receptor (CHO cells) (Homo sapiens)
assay-comment: Functional activity, FLIPR calcium assay, h5-HT2C
conditions-used: FLIPR, CHO cells
endpoint-label: pEC50
Quick note: pEC50 means taking -log10 of the concentration in moles per liter.

Lookup: Tell us which pEC50 value is on record for C[C@@H]1CNC[C@H]2Cc3ccc(Cl)cc3N21 [Example 8]
Found: 9.40

====

Listed compounds paired with reported melting point

Past entries and their recorded results:
C[C@@H]1CNC[C@H]2Cc3ccc(C(F)(F)F)cc3N21.Cl : 221 to 224 °C
C[C@@H]1CNC[C@H]2Cc3ccc(CO)cc3N21.Cl : 66 °C (dec.)
C[C@@H]1CNC[C@@H]2Cc3ccc(C(F)(F)F)cc3N21.Cl : 245 to 250 °C (dec.)
CCCCNC(=O)c1ccc2c(c1)N1[C@@H](CNC[C@H]1C)C2.Cl : 125 °C (dec.)
Cc1cc2c(cc1C(F)(F)F)N1[C@H](CNC[C@H]1C)C2.Cl : 200 to 205 °C

Please look at the following compound next.
Lookup: Tell us which melting point value is on record for CC(=O)Nc1ccc2c(c1)N1[C@@H](CNC[C@H]1C)C2.Cl
Found: > 250 °C (dec.)

====

target-entity: 5-HT2A receptors in a CHO cell line (Homo sapiens)
Sequence (P28223 whole entry): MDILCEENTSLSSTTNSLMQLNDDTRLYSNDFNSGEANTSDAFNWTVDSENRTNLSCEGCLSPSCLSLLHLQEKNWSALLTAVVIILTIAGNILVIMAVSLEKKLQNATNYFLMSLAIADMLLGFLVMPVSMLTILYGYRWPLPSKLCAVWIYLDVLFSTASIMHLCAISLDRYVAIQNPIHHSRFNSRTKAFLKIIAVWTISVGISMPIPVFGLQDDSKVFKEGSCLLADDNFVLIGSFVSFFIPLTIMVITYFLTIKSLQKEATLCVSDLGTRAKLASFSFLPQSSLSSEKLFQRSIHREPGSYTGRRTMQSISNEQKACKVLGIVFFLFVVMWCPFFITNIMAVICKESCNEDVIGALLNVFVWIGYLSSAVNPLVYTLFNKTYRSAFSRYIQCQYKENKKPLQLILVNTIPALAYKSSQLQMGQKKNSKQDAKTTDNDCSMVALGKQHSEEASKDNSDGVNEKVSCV
assay-comment: Binding to 5-HT2A receptor, [125I]-DOI, Method (c)
conditions-used: read-out: Ki (2A)
Procedure: The binding of compounds of formula (I) to serotonin receptors was determined in vitro by standard methods. The preparations were investigated in accordance with the assays given hereinafter. Method (c): For the binding to the 5-HT2A receptor the 5-HT2A receptors were radiolabeled with [^125I]-DOI. The affinity of the compounds for 5-HT2A receptors in a CHO cell line was determined according to the procedure of D. J. McKenna and S. J. Peroutka, J. Neurosci., 1989, 9, 3482–90.
endpoint-label: Ki
Field: value (include unit after the number)

Lookup: Tell us which Ki value is on record for O=C1OCCN1CN1CCN2c3cccc(Br)c3C[C@@H]2C1 [Example 3]
Found: 230 nM

====

target-entity: human 5-HT2B receptors in a CHO cell line (Homo sapiens)
Construct: expressed in transfected cells; host or cells: CHO cell line
Sequence (P41595 whole entry): as the sequence (P41595 whole entry) above
assay-comment: Binding to 5-HT2B receptor, [3H]-5-HT, Method (b)
conditions-used: read-out: Ki (2B)
endpoint-label: Ki (µM)
Supply the numeric figure in µM, leaving out any unit text.

Lookup: Tell us which Ki value is on record for O=C1OCCN1CN1CCN2c3cccc(Br)c3C[C@@H]2C1 [Example 3]
Found: 0.11

====

target-entity: 5-HT2C receptors in a CHO cell line (Homo sapiens)
Sequence (P28335 33-458): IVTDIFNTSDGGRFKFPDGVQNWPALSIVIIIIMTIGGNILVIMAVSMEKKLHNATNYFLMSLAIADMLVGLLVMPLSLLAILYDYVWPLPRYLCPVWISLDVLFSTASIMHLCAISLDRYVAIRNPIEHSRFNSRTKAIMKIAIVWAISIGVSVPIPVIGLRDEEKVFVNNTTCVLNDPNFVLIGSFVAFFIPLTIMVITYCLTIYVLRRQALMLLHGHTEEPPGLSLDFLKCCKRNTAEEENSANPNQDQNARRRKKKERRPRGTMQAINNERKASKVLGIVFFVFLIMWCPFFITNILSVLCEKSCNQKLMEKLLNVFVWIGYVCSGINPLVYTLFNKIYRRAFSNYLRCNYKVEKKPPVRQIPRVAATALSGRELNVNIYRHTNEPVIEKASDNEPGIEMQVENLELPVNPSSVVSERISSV
assay-comment: Binding to 5-HT2C receptor, [3H]-5-HT, Method (a)
conditions-used: read-out: Ki (2C)
endpoint-label: Ki
Field: value (include unit after the number)

Lookup: Tell us which Ki value is on record for O=C1OCCN1CN1CCN2c3cccc(Br)c3C[C@@H]2C1
Found: 26 nM

Provenance of the data: patent US7253281B2
